System: human promyelocytic leukemia HL-60
Test: MTT method: cell growth suppressing / apoptosis-inducing activity
Type: cell-based
Details: HL-60, MTT method of Example 4-(2), sample in 50% ethanol, 16 hours
REPORTED_ENDPOINT: cancer cell growth suppressing activity and apoptic body formation

1) O=C1C=CC(O)C1 (stereo not shown) [4-hydroxy-2-cyclopenten-1-one]: strong activity
2) O=C/C=C/C1COC(/C=C/C(O)CO)O1 (stereo not shown): noted
3) O=CC=CC(O)CO (single isomer, unassigned) [4,5-dihydroxy-2-pentenal, trans-4,5-dihydroxy-2-pentenal]: strong activity

---

Tested on: DSEK cells
Experiment: cell growth of DSEK cells (rheumatism model in vitro), Premix WST-1
Assay type: cell-based, human
Settings: Homo sapiens, 48 hours, Example 15-(2), read-out: IC50, 50% cell growth inhibiting concentration
REPORTED_ENDPOINT: IC50 (µM)
Please reply with the bare figure in µM and do not write the unit itself.

Q) Entry O=C1C=CC(O)C1 (centres unmarked) [4-hydroxy-2-cyclopenten-1-one] has what IC50?
A) 60

Q) Entry O=CC=CC(O)CO (single isomer, unassigned) [4,5-dihydroxy-2-pentenal, trans-4,5-dihydroxy-2-pentenal] has what IC50?
A) 165

Reference source for all entries: patent US6809091B1
